# assay_text: Cytotoxicity against human 184A1 after 72 hrs by MTT assay
# Assay type: cell-based
# experimental_conditions: 184A1 cells, read-out: ED50
readout_kind: CC50 at 72 h

>>> reported_result("COc1cc(OC)cc(-c2cc3occ(C)c3c(=O)o2)c1")
"16.8 µM"

====

# assay_text: Cytotoxicity against human MCF10A after 72 hrs by MTT assay
# Format: cell-based, MCF-10A
# experimental_conditions: MCF10A cells, read-out: ED50
readout_kind: CC50 at 72 h

>>> reported_result("COc1cc(OC)cc(-c2cc3occ(C)c3c(=O)o2)c1")
"> 35 µM"

====

Recorded pEC50 by entry
# Tested on: SK-BR-3
# assay_text: Cytotoxicity against human SK-BR-3 cells after 72 hrs by SRB assay
# Assay type: functional
# experimental_conditions: SK-BR-3, 72 h, read-out: ED50 (the source's name)
pEC50: −log10 of the molar value.
readout_kind: pEC50

>>> reported_result("Cc1cccc(-c2cc3occ(C)c3c(=O)o2)c1")
5.82
>>> reported_result("Cc1coc2cc(-c3ccc(O)c(O)c3)oc(=O)c12")
6.33
>>> reported_result("COc1cc(-c2cc3occ(C)c3c(=O)o2)cc(OC)c1OC")
6.36
>>> reported_result("Cc1cc(C)cc(-c2cc3occ(C)c3c(=O)o2)c1")
4.65
>>> reported_result("Cc1coc2cc(-c3cccc(O)c3)oc(=O)c12")
5.79
>>> reported_result("Cc1coc2cc(-c3cccc(F)c3)oc(=O)c12")
4.69
>>> reported_result("Cc1coc2cc(-c3ccc(F)cc3)oc(=O)c12")
4.72
>>> reported_result("Cc1ccc(-c2cc3occ(C)c3c(=O)o2)cc1C")
4.84
>>> reported_result("COc1cccc(-c2cc3occ(C)c3c(=O)o2)c1OC")
4.19

====

# Tested on: SK-BR-3
# assay_text: Cytotoxicity against human SK-BR-3 cells after 72 hrs by MTT assay
# Format: functional
# experimental_conditions: SK-BR-3, 72 h, read-out: ED50 (the source's name)
readout_kind: EC50 (nM)

>>> reported_result("COc1cc(OC)cc(-c2cc3occ(C)c3c(=O)o2)c1")
1000

====

# System: SK-BR-3
# assay_text: Cytotoxicity against human SK-BR-3 cells after 72 hrs by SRB assay
# Format: functional
# experimental_conditions: SK-BR-3, 72 h, read-out: ED50 (the source's name)
readout_kind: EC50 (µM)

>>> reported_result("Cc1coc2cc(-c3ccccc3)oc(=O)c12")
15.5
>>> reported_result("Cc1cccc2c1ccc1c3occ(C)c3c(=O)oc21")
0.95
>>> reported_result("CCc1coc2cc(-c3cc(OC)cc(OC)c3)oc(=O)c12")
55.6
>>> reported_result("Cc1coc2cc(-c3ccc(O)cc3)oc(=O)c12")
36
>>> reported_result("CCOc1cccc(-c2cc3occ(C)c3c(=O)o2)c1")
0.67
>>> reported_result("COc1cccc(-c2cc3occ(C)c3c(=O)o2)c1")
2.58
>>> reported_result("Cc1coc2cc(-c3cccc(O)c3O)oc(=O)c12")
34.1
>>> reported_result("COc1cc(OC)cc(-c2cc3occ(C)c3c(=O)o2)c1")
0.28
>>> reported_result("Cc1coc2cc(-c3cc(O)cc(O)c3)oc(=O)c12")
38.4
